Molecular target: human AChE (Homo sapiens, UniProt P22303)
Construct: human erythrocyte AChE (Biomed, Auckland, New Zealand); purchased Biomed, Auckland, New Zealand; host or cells: human erythrocytes (natural source)
Sequence (P22303 32-617 isoform P22303-2 limits assumed): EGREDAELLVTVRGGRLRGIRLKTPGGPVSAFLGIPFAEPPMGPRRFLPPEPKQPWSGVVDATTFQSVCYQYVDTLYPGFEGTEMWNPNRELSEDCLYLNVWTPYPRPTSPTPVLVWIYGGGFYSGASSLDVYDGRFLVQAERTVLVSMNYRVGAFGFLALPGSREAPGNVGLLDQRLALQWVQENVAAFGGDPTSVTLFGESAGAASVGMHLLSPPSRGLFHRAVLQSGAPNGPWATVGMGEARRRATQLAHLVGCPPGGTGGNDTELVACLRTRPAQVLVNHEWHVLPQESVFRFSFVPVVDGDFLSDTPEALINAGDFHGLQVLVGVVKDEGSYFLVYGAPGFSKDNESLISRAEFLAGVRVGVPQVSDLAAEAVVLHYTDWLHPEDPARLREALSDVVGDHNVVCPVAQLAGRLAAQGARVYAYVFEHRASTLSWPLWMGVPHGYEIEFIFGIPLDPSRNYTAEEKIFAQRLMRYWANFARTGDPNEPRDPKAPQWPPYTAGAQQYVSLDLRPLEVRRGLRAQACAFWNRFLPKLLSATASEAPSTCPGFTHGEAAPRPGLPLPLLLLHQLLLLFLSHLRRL
Assay: biochemical
Format: biochemical
READOUT: Ki
Please append the unit to your numeric answer.

Quote Ki reported for CCN(CC)CCNC(=O)n1c(=O)n(C(C)(C)C)c2ccccc21.Cl [Compound 13] please. 36.1 µM

====

Biological target: human AChE (Homo sapiens)
Construct: human erythrocyte AChE (Biomed, Auckland, New Zealand); purchased Biomed, Auckland, New Zealand; host or cells: human erythrocytes (natural source)
Test: biochemical
Assay type: biochemical
Details: human erythrocyte AChE, ATCh substrate, 37 °C; read-out: Ki
Binary label based on Ki with cut-off 100 µM: below gives true, not below gives false.

Could you please tell me whether Ki recorded for CCN(CC)CCNC(=O)n1c(=O)n(C(C)C)c2ccc(C(F)(F)F)cc21 is less than 100 µM? true

For CCN(CC)CCNC(=O)n1c(=O)n(C2CC2)c2ccccc21 , is the recorded Ki below the cut-off of 100 µM? false

# TODO verify Ki < 100 µM strictly for this compound: CC(C)n1c(=O)n(C(=O)NC2CC3CCC(C2)N3C)c2cc(C(F)(F)F)ccc21 (stereo not shown) true

Ki strictly < 100 µM for this compound? CC(C)n1c(=O)n(C(=O)NC2CC3CCC(C2)N3C)c2ccccc21 (stereo not shown) [Compound 15, reference compound] false

# check: Ki < 100 µM for CN(C)CCNC(=O)n1c(=O)n(C2CC2)c2ccccc21 false

Hello, is Ki of the following compound strictly smaller than 100 µM? CC(C)n1c(=O)n(C(=O)N2CCN(C(c3ccccc3)c3ccc(Cl)cc3)CC2)c2ccccc21 (stereo not shown) true
